assaySummary: Oral bioavailability in Beagle dog at 100 mg/kg administered as spray dried dispersion
Format: ADME, organism-based, Canis lupus familiaris
experimentalParameters: in vivo
endpointName: bioavailability (%)
Enter your answer as a number in %; do not include the unit.

IN: Return reported bioavailability; argument: Cc1c(Oc2ccc(-n3cnnn3)cc2F)ncnc1N1C2CC3CC1CC(C2)N3C(=O)OC1(C)CC1
OUT: 32

---

assaySummary: Oral bioavailability in Beagle dog at 10 mg/kg administered as spray dried dispersion
Assay type: ADME, organism-based, Canis lupus familiaris
experimentalParameters: in vivo
endpointName: bioavailability
Quick note: number first, unit second.

IN: Return reported bioavailability; argument: Cc1c(Oc2ccc(-n3cnnn3)cc2F)ncnc1N1C2CC3CC1CC(C2)N3C(=O)OC1(C)CC1
OUT: 87%

---

assaySummary: Oral bioavailability in Sprague-Dawley rat at 30 mg/kg administered as milled material in 0.5% methylcellulose
Assay type: ADME, organism-based
experimentalParameters: in vivo
endpointName: bioavailability (%)
Enter your answer as a number in %; do not include the unit.

IN: Return reported bioavailability; argument: Cc1c(Oc2ccc(-n3cnnn3)cc2F)ncnc1N1C2CC3CC1CC(C2)N3C(=O)OC1(C)CC1
OUT: 31

---

assaySummary: Thermodynamic solubility of the compound in PBS at pH 1.2
Format: physicochemical
experimentalParameters: read-out: Therm_solubility
endpointName: solubility thermodynamic
Quick note: number first, unit second.

IN: Return reported solubility thermodynamic; argument: Cc1c(Oc2ccc(-n3cnnn3)cc2F)ncnc1N1C2CC3CC1CC(C2)N3C(=O)OC1(C)CC1
OUT: 4.8 µg/mL

---

assaySummary: Tmax in Sprague-Dawley rat at 30 mg/kg, po administered as spray dried dispersion
Assay type: ADME, organism-based
Parameters: dose 30 mg/kg, route oral
experimentalParameters: in vivo
endpointName: Tmax (h)
Enter your answer as a number in h; do not include the unit.

IN: Return reported Tmax; argument: Cc1c(Oc2ccc(-n3cnnn3)cc2F)ncnc1N1C2CC3CC1CC(C2)N3C(=O)OC1(C)CC1
OUT: 4

---

assaySummary: AUC in Sprague-Dawley rat at 3 mg/kg, po dosing of milled material in 0.5% methylcellulose
Format: ADME, organism-based
Design: dose 3 mg/kg, route oral
experimentalParameters: in vivo
endpointName: AUC (ng·h/mL)
Enter your answer as a number in ng·h/mL; do not include the unit.

IN: Return reported AUC; argument: Cc1c(Oc2ccc(-n3cnnn3)cc2F)ncnc1N1C2CC3CC1CC(C2)N3C(=O)OC1(C)CC1
OUT: 3180

---

assaySummary: Clearance in Sprague-Dawley rat at 1 mg/kg, iv
Assay type: ADME, organism-based
Parameters: dose 1 mg/kg, route intravenous
experimentalParameters: in vivo
endpointName: clearance (mL/min/kg)
Enter your answer as a number in mL/min/kg; do not include the unit.

IN: Return reported clearance; argument: Cc1c(Oc2ccc(-n3cnnn3)cc2F)ncnc1N1C2CC3CC1CC(C2)N3C(=O)OC1(C)CC1
OUT: 13.2

---

assaySummary: Thermodynamic solubility of the compound in PBS at pH 7.4
Type: physicochemical
experimentalParameters: read-out: Therm_solubility
endpointName: solubility thermodynamic (µg/mL)
Enter your answer as a number in µg/mL; do not include the unit.

IN: Return reported solubility thermodynamic; argument: Cc1c(Oc2ccc(-n3cnnn3)cc2F)ncnc1N1C2CC3CC1CC(C2)N3C(=O)OC1(C)CC1
OUT: 0.7

---

assaySummary: Apparent intrinsic clearance in human liver microsomes
Type: ADME, Microsome
experimentalParameters: read-out: CLH(app)
endpointName: CLint scaled

IN: Return reported CLint scaled; argument: Cc1ncccc1Oc1ncnc(N2C3CC4CC2CC(C3)N4C(=O)OCC(C)C)c1C
OUT: > 30 mL/min/kg

IN: Return reported CLint scaled; argument: Cc1c(Oc2ccc(-n3cnnn3)cc2F)ncnc1N1C2CC3CC1CC(C2)N3C(=O)OC1(C)CC1
OUT: < 9.5 mL/min/kg

IN: Return reported CLint scaled; argument: Cc1ncccc1Oc1ncnc(N2C3CC4CC2CC(C3)N4C(=O)OC2(C)CCC2)c1C
OUT: > 30 mL/min/kg

IN: Return reported CLint scaled; argument: CC[C@H](C)OC(=O)N1C2CC3CC1CC(C2)N3c1ncnc(Oc2cccnc2C)c1C
OUT: > 30 mL/min/kg

IN: Return reported CLint scaled; argument: CC[C@@H](C)OC(=O)N1C2CC3CC1CC(C2)N3c1ncnc(Oc2cccnc2C)c1C
OUT: > 30 mL/min/kg

---

assaySummary: AUC in Beagle dog at 30 mg/kg, po administered as spray dried dispersion
Assay type: ADME, organism-based, Canis lupus familiaris
Parameters: dose 30 mg/kg, route oral
experimentalParameters: plasma
endpointName: AUC (ng·h/mL)
Enter your answer as a number in ng·h/mL; do not include the unit.

IN: Return reported AUC; argument: Cc1c(Oc2ccc(-n3cnnn3)cc2F)ncnc1N1C2CC3CC1CC(C2)N3C(=O)OC1(C)CC1
OUT: 76800

---

assaySummary: Cmax in Sprague-Dawley rat at 30 mg/kg, po dosing of milled material in 0.5% methylcellulose
Format: ADME, organism-based
Parameters: dose 30 mg/kg, route oral
experimentalParameters: in vivo
endpointName: Cmax (ng/mL)
Enter your answer as a number in ng/mL; do not include the unit.

IN: Return reported Cmax; argument: Cc1c(Oc2ccc(-n3cnnn3)cc2F)ncnc1N1C2CC3CC1CC(C2)N3C(=O)OC1(C)CC1
OUT: 912

---

assaySummary: AUC in Beagle dog at 3 mg/kg, po administered as spray dried dispersion
Type: ADME, organism-based, Canis lupus familiaris
Parameters: dose 3 mg/kg, route oral
experimentalParameters: plasma
endpointName: AUC (ng·h/mL)
Enter your answer as a number in ng·h/mL; do not include the unit.

IN: Return reported AUC; argument: Cc1c(Oc2ccc(-n3cnnn3)cc2F)ncnc1N1C2CC3CC1CC(C2)N3C(=O)OC1(C)CC1
OUT: 8580

---

assaySummary: Oral bioavailability in Sprague-Dawley rat at 3 mg/kg administered as spray dried dispersion
Format: ADME, organism-based
experimentalParameters: in vivo
endpointName: bioavailability

IN: Return reported bioavailability; argument: Cc1c(Oc2ccc(-n3cnnn3)cc2F)ncnc1N1C2CC3CC1CC(C2)N3C(=O)OC1(C)CC1
OUT: > 100%

---

assaySummary: AUC in Sprague-Dawley rat at 1 mg/kg, iv
Type: ADME, organism-based
Parameters: dose 1 mg/kg, route intravenous
experimentalParameters: plasma
endpointName: AUC
Quick note: number first, unit second.

IN: Return reported AUC; argument: Cc1c(Oc2ccc(-n3cnnn3)cc2F)ncnc1N1C2CC3CC1CC(C2)N3C(=O)OC1(C)CC1
OUT: 1360 ng·h/mL

---

assaySummary: Tmax in Beagle dog at 10 mg/kg, po administered as spray dried dispersion
Format: ADME, organism-based, Canis lupus familiaris
Set-up: dose 10 mg/kg, route oral
experimentalParameters: in vivo
endpointName: Tmax (h)
Enter your answer as a number in h; do not include the unit.

IN: Return reported Tmax; argument: Cc1c(Oc2ccc(-n3cnnn3)cc2F)ncnc1N1C2CC3CC1CC(C2)N3C(=O)OC1(C)CC1
OUT: 1

---

assaySummary: AUC in Sprague-Dawley rat at 3 mg/kg, po administered as spray dried dispersion
Type: ADME, organism-based
Design: dose 3 mg/kg, route oral
experimentalParameters: plasma
endpointName: AUC (ng·h/mL)
Enter your answer as a number in ng·h/mL; do not include the unit.

IN: Return reported AUC; argument: Cc1c(Oc2ccc(-n3cnnn3)cc2F)ncnc1N1C2CC3CC1CC(C2)N3C(=O)OC1(C)CC1
OUT: 6140

---

assaySummary: Fraction unbound in Beagle dog plasma
Format: ADME, cell-free, Canis lupus familiaris
endpointName: fraction unbound
Reply briefly: the number, and no unit.

IN: Return reported fraction unbound; argument: Cc1c(Oc2ccc(-n3cnnn3)cc2F)ncnc1N1C2CC3CC1CC(C2)N3C(=O)OC1(C)CC1
OUT: 0.014

---

assaySummary: Tmax in Beagle dog at 30 mg/kg, po administered as spray dried dispersion
Type: ADME, organism-based, Canis lupus familiaris
Parameters: dose 30 mg/kg, route oral
experimentalParameters: in vivo
endpointName: Tmax (h)
Enter your answer as a number in h; do not include the unit.

IN: Return reported Tmax; argument: Cc1c(Oc2ccc(-n3cnnn3)cc2F)ncnc1N1C2CC3CC1CC(C2)N3C(=O)OC1(C)CC1
OUT: 1

---

assaySummary: Fraction unbound in Sprague-Dawley rat plasma
Type: ADME, cell-free
endpointName: fraction unbound

IN: Return reported fraction unbound; argument: Cc1c(Oc2ccc(-n3cnnn3)cc2F)ncnc1N1C2CC3CC1CC(C2)N3C(=O)OC1(C)CC1
OUT: 0.01

---

assaySummary: Volume of distribution at steady state in Beagle dog at 1 mg/kg, iv
Type: ADME, organism-based, Canis lupus familiaris
Parameters: dose 1 mg/kg, route intravenous
experimentalParameters: in vivo, read-out: Vdss
endpointName: Vd
Quick note: number first, unit second.

IN: Return reported Vd; argument: Cc1c(Oc2ccc(-n3cnnn3)cc2F)ncnc1N1C2CC3CC1CC(C2)N3C(=O)OC1(C)CC1
OUT: 3.7 L/kg
